Test system: IGROV1 ovarian
Measurement Notes: NCI-60 one-dose screen, 48 h (100 = growth as untreated, 0 = no growth, -100 = all killed)
Experimental Conditions: 10 µM unless noted
Compounds without any hit were thinned out: in the full panel of roughly 83,000, 20% have a hit.
Mark yes for reported growth of 80% or greater; mark no for anything smaller.

| Chemical Structure | Group |
| --- | --- |
| Cn1c(=O)c2nc(/C=C/c3ccccc3)c(=O)[nH]c2n(C)c1=S | yes |

-- ask Entry `C=CCN=c1sc2c(n1NC(=O)c1cc3ccc1CCc1ccc(cc1)CC3)C(=O)c1ccccc1C2=O` : is its growth no less than 80%?
-- reply no

-- ask Proceed to `N#C/C(=C\c1c(-c2ccccc2)[nH]c2ccccc12)C(N)=O`
-- reply no

-- ask Proceed to `Cc1ccc(NC(=O)Cn2cc(CN3CCN(c4ccnc5cc(Cl)ccc45)CC3)nn2)cc1`
-- reply yes
